Values compiled from PubChem BioAssay (NCI).

- System: SR leukemia
- Procedure Details: NCI-60 one-dose screen, 48 h (100 = growth as untreated, 0 = no growth, -100 = all killed)
- Condition Set: 10 µM
- Procedure: Growth inhibition of the SR human tumor cell line is measured as a screen for anti-cancer activity. Cells are grown in 96 well plates and exposed to the test compound for 48 hours. Compounds are tested at a single concentration, which is 10^-5 M for most compounds. The reported endpoint is percent growth (GI% or GIPRCNT), where numbers from 0 - 100% represent growth inhibition, and numbers from -100% - 0 represent cell death. For example, a value of 40 represents 60% growth inhibition. […]
About 83,000 compounds went through this panel and 20% of them were active in at least one assay; those are over-represented in the sample as a whole.
Each entry below lists one item and its recorded growth value.

Compound | growth / %
O=C(O)c1nn(Cc2ccc(Cl)cc2)c2ccccc12 | 97.3
CCCCCN(CCCCC)CC(O)c1ccc(C)c(Cl)c1 (centres undefined) | 92.4
COc1cc2c(cc1OC)CN(C)C(C)C2 (centres undefined) | 101
N#CC1c2ccccc2C=CN1C(=O)c1ccc(N(CCCl)CCCl)cc1 (centres undefined) | 86.6

====

- System: HL-60(TB) leukemia
- Procedure Details: NCI-60 one-dose screen, 48 h
- Condition Set: 10 µM unless noted
Compounds without any hit were thinned out: in the full panel of roughly 83,000, 20% have a hit. The source made the active and inactive calls. The calls were made as follows: active = growth percent below 10; inactive = the rest.
Labels: 1 = active, 0 = inactive

Molecule | Cat
CC(=O)O[C@H]1CC[C@]2(C)[C@H]3CC=C4[C@@H]5[C@H](C)[C@@H](C)CC[C@]5(C(=O)NCCNCCNCCN)CC[C@@]4(C)[C@]3(C)CC[C@H]2C1(C)C | 0
CN(C)c1ccc(C(=NO)c2ccc(N(C)C)cc2)cc1 | 0
CCCCc1n(Cc2ccc3ccccc3c2)c2ccccc2[n+]1Cc1ccc2ccccc2c1 | 1
Oc1ccccc1-c1nc2ccccn2c1NCCN1CCOCC1 | 0
COc1cc(/C=C/C(=O)c2c(C)nc3ccccc3c2C)ccc1OCCCCOc1cc2c(cc1OC)C(=O)N1CCC[C@H]1C=N2 | 1
O=C1c2ccccc2C(=O)c2c1cccc2-n1nnc2ccccc21 | 0
CCN(CC)CCOc1ccc(Nc2ncc3cc(-c4ccc(O)cc4)c(=O)n(C)c3n2)cc1 | 0
CC1(C)C2CC=C(/C=N/NC(=O)C3CCC(=O)N3)C1C2 (stereo not given) | 0
CC(/C=N/NC(=O)c1cc(-c2ccco2)[nH]n1)=C\c1ccccc1 | 0
COc1ccc(Cl)cc1NC(=O)C(Br)C(Br)C(=O)O (stereo not given) | 1
Cc1ccc(C(=O)/C(=C\c2ccc([N+](=O)[O-])cc2)S(=O)Cc2ccc(F)cc2)cc1 (stereo not given) | 1
Cc1nnc(N/N=C/c2ccc([N+](=O)[O-])o2)[nH]c1=O | 1
COc1c(O[C@@H]2OC(CO)[C@H](O)[C@H](O)C2O)cc2oc3cc(O)c(CC=C(C)C)c(O)c3c(=O)c2c1CC=C(C)C (stereo not given in full) | 0
Cc1cc(C)nc(SC2=C(Nc3cccc(Cl)c3C)C(=O)N(Cc3ccccc3)C2=O)n1 | 0
COc1ccc2nc(N=Nc3c(O)ccc4ccccc34)sc2c1 | 1
CCOC(=O)C1=C(C)N=C2Sc3cccc(OC)c3N2[C@H]1c1ccccn1 | 0
NC(=O)c1c(NC(=O)/C=C/c2cccs2)sc2c1CCC(=O)C2 | 1
S=c1nc2oc(-c3ccccc3)c(-c3ccccc3)c2c(/N=C\c2ccco2)[nH]1 | 0
CCc1cccc2c1S/C(=C/c1ccc(Cl)cc1)C2=O | 0
COc1ccc(-n2c(COc3ccc(F)cc3)n[nH]c2=S)cc1 | 0

====

- Test system: HOP-92 NSCLC
- Procedure Details: NCI-60 one-dose screen, 48 h (100 = growth as untreated, 0 = no growth, -100 = all killed)
- Condition Set: 10 µM unless noted
The panel holds about 83,000 compounds, 20% with a hit somewhere; the sample as a whole holds those more often.
Recorded Endpoint: growth (%)

Compound | Measure Unit | Observed Measurement
c1ccc(CCN2CCCCC2Cc2ccccc2)cc1 (configuration not stated) | % | 100
CO[C@@H]([CH2][Hg][S]C#N)[C@@H]([CH2][Hg][S]C#N)OC | % | 76.2
CC(CC(C#N)(c1ccccc1)c1ccccc1)N1CCOCC1 (configuration not stated) | % | 83.5
Nc1ncnc2c1c(C(=O)NO)cn2C1OC(CO)C(O)C1O (configuration not stated) | % | -37
N#C[Se]CCN1C(=O)C2C(C1=O)[C@H]1C=C[C@@H]2S1 (some centres not stated) | % | -46.3
S=P(Nc1ccccc1)(Nc1ccccc1)c1ccccc1 | % | 84.1
CCOC(=O)/C(C#N)=C/c1ccc(N(CCCl)CCCl)cc1 | % | 67.6
O=[N+]([O-])c1cccc([As]=[As]c2cccc([N+](=O)[O-])c2)c1 (configuration not stated) | % | -99.3
O=C(CCF)c1ccc(O)cc1 | % | 100
COC(=O)C(=[N+]=[N-])C(=O)OC | % | 82.9
CC(=O)[O][Hg][c]1ccccc1 | % | -94.7
Nc1cccc2c1Oc1ccccc1O2 | % | 80.3

====

- Test system: CAKI-1 renal
- Procedure Details: NCI-60 one-dose screen, 48 h (100 = growth as untreated, 0 = no growth, -100 = all killed)
- Condition Set: 10 µM unless noted
Compounds without any hit were thinned out: in the full panel of roughly 83,000, 20% have a hit.
Recorded Endpoint: growth (%)

Compound | Assay System | Observed Measurement
CCOc1ccc(C(O)CN(C)Cc2ccccc2)cc1Cl (centres undefined) | CAKI-1 renal | 93.3
O=C(O)c1nn(Cc2ccc(Cl)cc2)c2ccccc12 | CAKI-1 renal | 106
O=C1NC(=O)C(=Cc2cn(Cc3ccccc3)c3ccccc23)C(=O)N1 | CAKI-1 renal | 62.4
C/C(=N/OC(=O)N(C)C)c1ccc(Cl)cc1Cl | CAKI-1 renal | 96.6
CC[CH2][Pb]([CH2]CC)([CH2]CC)[O]C(=O)C(F)(F)F | CAKI-1 renal | -95.2
CC(CC(C#N)(c1ccccc1)c1ccccc1)N1CCOCC1 (centres undefined) | CAKI-1 renal | 92.9
Oc1ccc(O)c2c1C1(Cl)C(Cl)=C(Cl)C2(Cl)C1(Cl)Cl | CAKI-1 renal | 34.6
CC(C)N=C(NC(C)C)N1CC1 | CAKI-1 renal | 99.3
COc1cc2c(cc1OC)CN(C)C(C)C2 (centres undefined) | CAKI-1 renal | 101
ClCCN(CCCl)c1nc(Cl)c(C2CC(c3ccc(Cl)cc3)=NN2c2cc(Cl)cc(Cl)c2)s1 (centres undefined) | CAKI-1 renal | 82.9
O=C(O)C1[O][Sb][O]C1C(=O)O (centres undefined) | CAKI-1 renal | 118
COc1ccc(C(=O)c2ccc([As]=O)cc2)cc1 (centres undefined) | CAKI-1 renal | -98.7
CCOC(=O)/C(C#N)=C/c1ccc(N(CCCl)CCCl)cc1 | CAKI-1 renal | -9.24
CCOC(=O)C1(c2ccccc2)CCN(CC(=O)c2ccc(NC(C)=O)cc2)CC1 | CAKI-1 renal | 95.4
OC1(c2ccccc2F)c2ccccc2C2=NCCN21 (centres undefined) | CAKI-1 renal | 64.4
CCOCC1(CCc2ccccc2)C(=O)NC(=S)NC1=O | CAKI-1 renal | 99.9
CCC(C)/C=C(C)/C=C/C(=O)c1c(O)c(-c2ccc(O)cc2)c[nH]c1=O (centres undefined) | CAKI-1 renal | -16.5
C/C(=C\C(=O)O[C@H]1[C@@H]2[C@H](C)CC[C@H]2[C@]2(C)O[C@@]1(C1CCCCC1)C[C@H]2OC(=O)CO)c1ccccc1 | CAKI-1 renal | -25
C1CN1c1nc(N2CC2)nc(N2CC2)n1 | CAKI-1 renal | 6.72
COC(C)(C)CCC[C@H](C)C/C=C/C(C)=C/C(=O)OC(C)C | CAKI-1 renal | 85.4
COc1cc(C2CC(=O)Nc3nc(N)[se]c32)c(OC)c2c1OCO2 (centres undefined) | CAKI-1 renal | 89.8
O1[As]2O[As]3O[As]1O[As](O2)O3 | CAKI-1 renal | -20.2
CN=C(NN)NN | CAKI-1 renal | 88.9
CC(=O)[O][Hg][CH2]C1(C)COC(C)([CH2][Hg][O]C(C)=O)CO1 (centres undefined) | CAKI-1 renal | -100

====

- System: RXF 393 renal
- Procedure Details: NCI-60 one-dose screen, 48 h
- Condition Set: 10 µM unless noted
About 83,000 compounds went through this panel and 20% of them were active in at least one assay; those are over-represented in the sample as a whole. The source made the active and inactive calls. How the source made its calls: active means growth percent below 10; inactive means the rest.
Labels: active, inactive

Molecule | Cat
CCOC(=O)c1cnc(SCc2ccc(Cl)c(Cl)c2)nc1N1CC1 | inactive
C#CC1(O)CCC2(C)C(CCC3C4CCC(=O)C4(C)CCC32)C1 (stereo not given) | inactive
C[C@]12CC[C@H](OC3OC(O)C(O)C(O)C3O)C=C1CCC1C2CC[C@]2(C)[C@@H](c3ccc(=O)oc3)CC[C@]12O (stereo not given in full) | active
OC1(c2ccc(Cl)cc2Cl)c2ccccc2C2=NCCN21 (stereo not given) | active
CC(=O)OC1CCC2(C)C(=CCC3C4CC(CN5CC5)C(=O)C4(C)CCC32)C1 (stereo not given) | inactive
Nc1cccc(CC(=O)Nc2ccc(S(=O)(=O)F)cc2)c1 | inactive
COc1c(O)c2c3c(c1OC)-c1ccccc1CC3N(C)CC2 (stereo not given) | inactive
O=C(Nc1ccc(S(=O)(=O)F)cc1)Oc1ccccc1 | inactive
CC1(C)N=C(N)N=C(N)N1c1cccc(C(=O)Nc2cccc(S(=O)(=O)F)c2)c1 | inactive
CCN1CC2(CN(CC)C1=S)C(=O)NC(=O)NC2=O | inactive
